molecular target: His-PKC-theta (Homo sapiens); construct: His; purchased Invitrogen; assay: PKC-theta Assay (384-well time resolved fluorescence, IMAP TR-FRET); assay type: biochemical; details: Table 2; read-out: Act. Level (IC50 in the PKC-theta Assay)
Sequence (Q04759 whole entry): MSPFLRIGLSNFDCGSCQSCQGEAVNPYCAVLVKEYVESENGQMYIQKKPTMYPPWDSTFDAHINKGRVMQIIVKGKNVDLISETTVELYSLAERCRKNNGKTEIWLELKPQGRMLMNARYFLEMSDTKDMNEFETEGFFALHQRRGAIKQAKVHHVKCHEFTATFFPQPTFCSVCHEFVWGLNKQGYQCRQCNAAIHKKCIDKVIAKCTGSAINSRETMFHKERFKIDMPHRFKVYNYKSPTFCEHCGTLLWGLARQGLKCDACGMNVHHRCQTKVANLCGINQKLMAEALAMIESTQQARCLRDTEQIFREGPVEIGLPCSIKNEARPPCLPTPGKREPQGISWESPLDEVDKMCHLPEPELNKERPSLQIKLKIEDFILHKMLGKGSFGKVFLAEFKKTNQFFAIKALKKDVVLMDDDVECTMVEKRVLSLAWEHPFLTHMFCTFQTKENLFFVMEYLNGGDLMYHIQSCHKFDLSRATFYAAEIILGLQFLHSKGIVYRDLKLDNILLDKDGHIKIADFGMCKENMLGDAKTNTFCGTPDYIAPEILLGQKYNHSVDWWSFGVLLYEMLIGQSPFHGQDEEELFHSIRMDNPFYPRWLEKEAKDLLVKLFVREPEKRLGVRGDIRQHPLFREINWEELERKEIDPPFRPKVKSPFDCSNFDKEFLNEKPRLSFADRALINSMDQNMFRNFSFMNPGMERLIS
QUANTITY_KIND: IC50

Ask: I'd like to know its IC50. The molecule in question is `CC1(C)C[C@H](Nc2nc(NCCc3ccc(Oc4ccccc4)cc3)ncc2C#N)CC[C@@H]1O`
Result: 100 to 800 nM

Ask: I'd like to know its IC50. The molecule in question is `CC1(C)C[C@H](Nc2nc(NCCc3ccc(S(N)(=O)=O)cc3)ncc2C#N)CC[C@@H]1O`
Result: 100 to 800 nM

Ask: Query (molecule): `CC1(C)[C@@H](Nc2nc(NCCc3cccc(Cl)c3)ncc2C#N)C[C@H]1C(N)=O` ; field requested: IC50
Result: 100 to 800 nM
